Numbers sourced from patent US10369145B2.

Test system: NCI-H522
Assay: NCI 60 panel: NCI-H522 (Non-Small Cell Lung Cancer)
Format: cell-based
Conditions: read-out: LC50 (the source's name)
recorded-metric: CC50

Form field, CC50 with NCI-H522, item COc1ccccc1Nc1nc(-c2cc3cccc(N)c3oc2=O)cs1 : > 100 µM

* * *

Tested on: A549
Experiment: NCI 60 panel: A549 (Non-Small Cell Lung Cancer)
Type: cell-based
Details: read-out: LC50 (the source's name)
recorded-metric: CC50

Value (CC50, A549) for record COc1ccccc1Nc1nc(-c2cc3cccc(N)c3oc2=O)cs1 [Compound DBM 228] = > 100 µM

* * *

Tested on: myeloma cells
Type: cell-based
Assignment: determine reported CC50 for the given molecules.

Noted for COc1ccccc1Nc1nc(-c2cc3cccc([N+](=O)[O-])c3oc2=O)cs1 : its CC50 reads > 4000 nM

Value of CC50 reported for the molecule COc1ccccc1Nc1nc(-c2cc3cccc(N)c3oc2=O)cs1 is > 4000 nM

Entry COc1ccccc1Nc1nc(-c2cc3cccc(C(=O)O)c3oc2=O)cs1 ; CC50 = > 4000 nM

response.value for COc1ccccc1Nc1nc(-c2cc3cccc(Br)c3oc2=O)cs1 (field: CC50) = 226 nM

The reported CC50 of the molecule COc1ccccc1Nc1nc(-c2cc3cccc(Cl)c3oc2=O)cs1 was > 4000 nM

The reported value for COc1ccccc1Nc1nc(-c2cc3cccc(C)c3oc2=O)cs1 in terms of CC50 is 544 nM

* * *

Test system: RPMI-8226
Assay: NCI 60 panel: RPMI-8226 (Leukemia)
Format: cell-based
Conditions: read-out: LC50 (the source's name)
recorded-metric: CC50

response.value for COc1ccccc1Nc1nc(-c2cc3cccc(N)c3oc2=O)cs1 (field: CC50) = > 100 µM

* * *

System: SF-295
Test: NCI 60 panel: SF-295 (CNS Cancer)
Type: cell-based
Details: read-out: LC50 (the source's name)
recorded-metric: CC50 (µM)
The reply should contain only the number, in µM.

For this compound ( COc1ccccc1Nc1nc(-c2cc3cccc(N)c3oc2=O)cs1 ), measured CC50 is 41.5

* * *

Tested on: hyperproliferative PKD cells (cloned polycystic kidney tissue cells)
Assay: Concentration-response in primary cultures cloned from cystic kidney tissue
Assay type: cell-based
Conditions: hyperproliferative PKD cells, 72 hour treatment
recorded-metric: IC50 (µM)
Entry rule: numbers only, all in µM.

Kindly note the recorded IC50 for COc1ccccc1Nc1nc(-c2cc3cccc(OC)c3oc2=O)cs1 [Compound DBM 101] , which is 7.2

Item: COc1ccccc1Nc1nc(-c2cc3cccc(C(=O)O)c3oc2=O)cs1 [Compound DBM 328] | IC50: 78

// IC50 lookup, compound = COc1ccccc1Nc1nc(-c2cc3cccc(Cl)c3oc2=O)cs1 [Compound DBM 308] , result: 0.54

The compound identified as COc1ccccc1Nc1nc(-c2cc3cccc(N)c3oc2=O)cs1 [Compound DBM 228] registered its IC50 at 0.69

* * *

Test system: HCT-15
Assay: NCI 60 panel: HCT-15 (Colon Cancer)
Format: cell-based
Conditions: read-out: LC50 (the source's name)
recorded-metric: CC50

Quick note, CC50 for COc1ccccc1Nc1nc(-c2cc3cccc(N)c3oc2=O)cs1 landed at > 100 µM
